# credit: patent US20250368734A1

Please provide measured Top for the entries that follow.
- target.of.assay: T1, cynomolgus monkey GPRC5D (cynomolgus monkey)
- T1 construct: whole, on cells; HEK293T-cynoGPRC5D cells; also called cynoGPRC5D
- procedure.details: FACS, HEK293T-cynoGPRC5D cells
Give bare numbers.

binder: ch28H9C12 (antibody, V domains shown) VH: EVQLVESGGGLVKPGGSLKLSCAASGFTFSDYGMHWVRQAPEKGLEWVAYISSGSSTIYYADTVKGRFTISRDNAKNTLFLQMTSLRSEDTAIYYCVRRPWYFDVWGTGTTVTVSS VL: DVLMTQTPLSLPVSLGDQASISCRSSQSIVHSNGNTYLQWYLQKPGQSPKLLIYKVSNRFSGVPDRFSGSGSGTDFTLKISRLEAEDLGVYYCFQGSHVPFTFGSGTKLEIK
Top: 65900
//
binder: ch26E2H6 (antibody, V domains shown) VH: EVQLVESGGDLVKPGGSLKLSCAASGFTFSSYGMSWVRQTPDKRLEWVATISSGGSYTYYPDSVKGRFTISRDNAKNTLYLQMSSLKSEDTAMYYCARHATDYWGQGTTLTVSS VL: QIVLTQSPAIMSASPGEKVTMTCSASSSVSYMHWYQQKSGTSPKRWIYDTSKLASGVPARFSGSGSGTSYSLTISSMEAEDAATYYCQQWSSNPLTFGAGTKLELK
Top: 51300

Need Top, item ch101B3G3 (antibody, V domains shown) VH: EVQLQQSGPELVKPGASMKISCKASGYSFTGYTMNWVKQSHGKNLEWIGLINPYNGGTRYNQKFKDKATLTVDKSSSTAYMELLSLTSEDSAVYYCARWLLRYAMDYWGQGTSVTVSS VL: DIVMTQSQKFMSTSVGDRVSITCKASQNVGNAVAWYQQKPGHSPKLLISSASNRKNGVPDRFTGSGSGTDFTLTVSNMQSEDLADYFCQQYSDSSWTFGGGTKLEIK
68900
